Where do the numbers come from? From patent US20240254222A1.

# Target under test: T1, Mouse Semaphorin3A-Sema Domain, TPP-19069 (mouse, UniProt O08665 21-569)
# T1 construct: produced inhouse
# T1 sequence: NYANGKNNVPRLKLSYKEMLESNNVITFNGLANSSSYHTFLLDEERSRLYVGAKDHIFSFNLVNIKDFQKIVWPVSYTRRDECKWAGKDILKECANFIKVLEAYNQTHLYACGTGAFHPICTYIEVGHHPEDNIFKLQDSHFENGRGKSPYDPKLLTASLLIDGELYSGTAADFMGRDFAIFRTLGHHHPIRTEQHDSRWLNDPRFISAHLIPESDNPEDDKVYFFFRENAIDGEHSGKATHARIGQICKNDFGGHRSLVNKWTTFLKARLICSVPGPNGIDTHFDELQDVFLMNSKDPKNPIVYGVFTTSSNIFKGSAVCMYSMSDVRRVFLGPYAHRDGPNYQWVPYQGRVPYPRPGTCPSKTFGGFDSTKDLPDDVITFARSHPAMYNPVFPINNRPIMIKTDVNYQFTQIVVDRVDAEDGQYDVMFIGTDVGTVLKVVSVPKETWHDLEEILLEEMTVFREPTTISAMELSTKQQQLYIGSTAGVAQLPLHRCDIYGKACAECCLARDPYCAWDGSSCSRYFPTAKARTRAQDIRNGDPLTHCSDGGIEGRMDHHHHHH
# Method description: SPR, captured antibody, Sema3A domain analyte

Binder	Binding Activity [%] / %
TPP-17755 (antibody, human IgG1, lambda, V domains shown, also called Samsung; Samsung Prior Art F11) VH: EVQLLESGGGLVQTGGSLRLSCAASGFTFSDYAMSWVRQAPGKGLEWVSWIYYDSGSKYYADSVKGRFTISRDNSKNTLYLQMNSLRAEDTAVYYCAKLNGDFDYWGQGTLVTVSS VL: QSVLTQPPSASGTPGQRVTISCSGSSSNIGNNDVSWYQQLPGTAPKLLIYADSHRPSGVPDRFSGSKSGTSASLAISGLRSEDEADYYCGAWDSSLSGYVFGGGTKLTVLG	57
TPP-30791 (antibody, human IgG1, kappa, V domains shown, prior art, WO 2020/225400; also called BI clone IV; Böhringer (BI) Clone IV) VH: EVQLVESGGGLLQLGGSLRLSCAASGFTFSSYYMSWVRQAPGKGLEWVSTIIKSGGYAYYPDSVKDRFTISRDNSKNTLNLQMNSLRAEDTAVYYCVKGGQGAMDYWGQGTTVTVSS VL: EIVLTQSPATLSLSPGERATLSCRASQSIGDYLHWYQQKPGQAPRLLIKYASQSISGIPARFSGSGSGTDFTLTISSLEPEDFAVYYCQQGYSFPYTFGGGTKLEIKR	107
TPP-30789 (antibody, human IgG1, kappa, V domains shown, prior art, WO 2020/225400; also called BI clone II; Böhringer (BI) Clone II) VH: EVQLVESGGGLVQPGGSLRLSCAASGFPFSSYYMSWVRQAPGKGLEWVSTIIKSGGYAYYPDSVKDRFTISRDNSKNTLYLQMSSLRAEDTAVYYCVRGGQGAMDYWGQGTTVTVSS VL: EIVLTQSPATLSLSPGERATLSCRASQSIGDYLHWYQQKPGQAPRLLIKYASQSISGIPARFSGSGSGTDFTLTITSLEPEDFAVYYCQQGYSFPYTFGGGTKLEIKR	103
